- Procedure text: chemical genetic growth profiling, strain panel (AID 1159580);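 also: tested at 20 µM; growth read once vehicle control cultures reached saturation at 30 °C; 1 = growth at the plate median or of vehicle wells; lower values mean less growth of the strain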
- Assay conditions: S. cerevisiae deletion strains, growth OD, locus YGL253W, strain hxk2, hits give low values
About 2,000 (36%) of roughly 5,500 compounds were called active. Roughly 18% stayed inconclusive and do not appear here. The list shows a part of the results.
Entries and their measured normalized growth follow.

Compound	normalized growth
CC1CC2C3CCC4=CC(=O)C=C[C@]4(C)[C@@]3(F)[C@@H](O)C[C@]2(C)[C@@]1(O)C(=O)CO (stereo not given in full)	0.974
CC(N)CCCC(C)(C)O (stereo not given)	0.977
CC(=O)O[C@@H]1C[C@@]2(C)C(CC[C@@H]2C(C)=O)C2CCC3=CC(=O)CC[C@]3(C)C21 (stereo not given in full)	1
C[C@H]1CC2C([C@@H](O)C[C@@]3(C)C2CC[C@]3(O)C(=O)CO)[C@@]2(C)C=CC(=O)C=C12 (stereo not given in full)	0.997
CCN(CCO)CCCC(C)Nc1ccnc2cc(Cl)ccc12 (stereo not given)	0.999
CC(=O)NC1SCCC1=O (stereo not given)	0.989
CC(=O)OC(C)(C)[C@@H]1Cc2cc3ccc(=O)oc3cc2O1	0.985
CC(N)C(=O)OC(C)(C)Cc1ccc(Cl)cc1 (stereo not given)	1.01
Cc1cccc(C)c1OCC(C)N (stereo not given)	1.01
COc1cc2c(cc1OC)Cc1cc(OC)c(OC)cc1Cc1cc(OC)c(OC)cc1C2	1.02
CCOC(=O)[C@H](CCc1ccccc1)N[C@H]1CCc2ccccc2N(CC(=O)O)C1=O	0.999
N=c1ccn2c(n1)O[C@@H]1C2O[C@H](CO)[C@H]1O (stereo not given in full)	0.981
C[C@]12CCC(=O)C=C1CCC1C2CC[C@@]2(C)C1CC[C@@H]2O (stereo not given in full)	0.991
CC(C)(O)[C@@H]1[C@H]2OC(=O)[C@@H]1[C@]1(O)C[C@H]3O[C@]34C(=O)O[C@H]2[C@]14C	1.01
CC(C)OC(=O)C(C)(C)Oc1ccc(C(=O)c2ccc(Cl)cc2)cc1	0.972

###

- Procedure text: chemical genetic growth profiling, strain panel (AID 1159580);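 also: tested at 20 µM; growth read once vehicle control cultures reached saturation at 30 °C; 1 = growth at the plate median or of vehicle wells; lower values mean less growth of the strain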
- Assay conditions: S. cerevisiae deletion strains, growth OD, locus YOR136W, strain idh2, hits give low values
In all, about 5,500 compounds went through this assay and about 2,000 (36%) were called active. Another 18% or so got no clear call; they are omitted. This is one part of the list.
Recorded endpoint: normalized growth

Molecule	Numeric readout
CCC(C)C(OC(C)=O)C(=O)OC1C(O)C2C3(C)C=CC(=O)C(C)(C)C3CC(OC(=O)C(O)C(C)C)C2(C)C23OC2CC(c2ccoc2)C13C (stereo not given)	0.979
c1cncc(C2CCCCN2)c1 (stereo not given)	0.978
CCCCCCCCNC(C)C(O)c1ccc(SC(C)C)cc1 (stereo not given)	0.0657
CC(=O)OC(C)(C)[C@@H]1Cc2cc3ccc(=O)oc3cc2O1	0.999
CC(C(=O)O)c1cccc(C(=O)c2ccccc2)c1 (stereo not given)	0.988
C=C(C)[C@@H]1[C@H]2OC(=O)[C@@H]1[C@]1(O)C[C@H]3O[C@]34C(=O)O[C@H]2[C@]14C	0.986
CCOC(=O)c1c(C)cc(O)c(C)c1O	0.957
CC(N)C(=O)OC(C)(C)Cc1ccc(Cl)cc1 (stereo not given)	0.977
CCOC(=O)[C@H](CCc1ccccc1)N[C@H]1CCc2ccccc2N(CC(=O)O)C1=O	0.974
O=C(O)c1cc2ccccc2[nH]1	1.02
CCCCCCCCCCCCCCCC(=O)OC/C=C(C)/C=C/C=C(C)/C=C/C1=C(C)CCCC1(C)C	1
C=C1C([C@]2(C)C(CC(=O)OC)[C@@](C)(COC(C)=O)OC(=O)C[C@@H]2OC(C)=O)[C@@H](OC=O)[C@H](OC(=O)C(OC(C)=O)C(C)CC)[C@@]2(C)[C@H](c3ccoc3)CC(=O)C12O (stereo not given in full)	1.03
CNC(C)[C@H](O)c1ccccc1 (stereo not given in full)	1
CCOC(=O)CCC(=O)O[C@H]1[C@H](O[C@@H]2[C@@H](C)[C@H](O[C@H]3C[C@@](C)(OC)[C@@H](O)[C@H](C)O3)[C@@H](C)C(=O)O[C@H](CC)[C@@](C)(O)[C@H](O)[C@@H](C)C(=O)[C@H](C)C[C@@]2(C)O)O[C@H](C)C[C@@H]1N(C)C	0.982
NC(=O)c1ccc[n+]([C@@H]2O[C@H](COP(=O)([O-])OP(=O)(O)OC[C@H]3O[C@@H](n4cnc5c(N)ncnc54)[C@H](O)[C@@H]3O)[C@@H](O)[C@H]2O)c1	0.991
COc1ccc2c3c1O[C@H]1C[C@@H](O)C=C[C@@]31CCN(C)C2	1.02
CC(=O)[C@H]1CCC2C3CCC4=CC(=O)CC[C@]4(C)C3CC[C@@]21C (stereo not given in full)	0.943
O=C(O)C1(O)C[C@@H](O)C(O)[C@H](O)C1 (stereo not given in full)	1.03
CNCCc1ccccn1	1.01
COc1ccc2cc([C@H](C)CO)ccc2c1	0.977
O=C(O)c1cc2ccccc2c(Cc2c(O)c(C(=O)O)cc3ccccc23)c1O	1
CC(C)(OC(=O)c1ccccc1)[C@@H]1Cc2cc3ccc(=O)oc3cc2O1	0.987
CC(=O)OCC(=O)[C@@]1(O)CCC2C3CCC4=CC(=O)CC[C@]4(C)C3C(=O)C[C@@]21C (stereo not given in full)	1.03
COc1ccc2c(C)cc(=O)oc2c1	1.03
C[C@H]1CC2C([C@@H](O)C[C@@]3(C)C2CC[C@]3(O)C(=O)CO)[C@@]2(C)C=CC(=O)C=C12 (stereo not given in full)	1.01
S=c1nc[nH]c2nc[nH]c12	0.99
CC1(C)C(C=C(Cl)Cl)C1C(=O)OC(C#N)c1cccc(Oc2ccccc2)c1 (stereo not given)	1
CCOC(=O)c1c(C)cc(O)c(C=O)c1O	0.267
COc1ccc2cc([C@H](C)C(=O)O)ccc2c1	0.993
CC(=O)C1CCC2C3CC(=O)C4=CC(=O)CCC4(C)C3CCC12C (stereo not given)	0.984
N=c1ccn2c(n1)O[C@@H]1C2O[C@H](CO)[C@H]1O (stereo not given in full)	1.01
Cc1cc(O)c(C)c(O)c1C(=O)O	0.986
C[C@H]1OC(n2cc(F)c(=O)[nH]c2=O)C(O)[C@@H]1O (stereo not given in full)	0.983
O=C1C=CC(=C(c2ccc(O)cc2)c2ccc(O)cc2)C=C1	0.982
O=C(O)c1c2ccccc2cc2ccccc12	0.978

From: PubChem BioAssay AID1159580
